These measurements were taken from PubChem BioAssay (NCI).

System: RXF 393 renal
Method summary: NCI tumour cell line growth inhibition, 48 h
Below, each entry is listed with its recorded GI50.
Recorded metric: GI50

>>> value_measured("COC1=C(OC)C(=O)C(CCCCCCCCCCO)=C(C)C1=O")
"10.1 µM"
>>> value_measured("O=C1/C(=C/c2ccccc2O)N=C(c2ccccc2)N1c1cc(C(F)(F)F)ccc1Cl")
"29.9 µM"
>>> value_measured("COc1ccc(S(=O)(=O)N2CCNCC2)cc1OC")
"> 100 µM"
>>> value_measured("COc1cc(/C=C/C(=O)O[C@H]2[C@H](O[C@@H]3O[C@@H](C)[C@H](O)[C@@H](O)[C@H]3O)[C@@H](O)[C@H](OCCc3ccc(O)c(O)c3)O[C@@H]2COC2OCC(O)(CO)C2O)ccc1O (stereo not given in full)")
"> 100 µM"
>>> value_measured("CC(=O)[CH-]C(C)=O.CC(=O)[CH-]C(C)=O.CC(=O)[CH-]C(C)=O.[Ga+3]")
"> 100 µM"
>>> value_measured("S=C(NCc1ccc2c(c1)OCO2)N1CCN(c2ncnc3c2oc2ccccc23)CC1")
"> 100 µM"
>>> value_measured("C=CC(=O)N[C@@H](/C=C/C(=O)OCC)Cc1ccc(-c2cc(Cl)cc(Cl)c2)cc1")
"7.96 µM"
>>> value_measured("O=S(=O)(NCCCNc1nccc(-c2c(-c3ccc(F)cc3)nc3sccn23)n1)c1ccc(F)cc1")
"3.67 µM"
>>> value_measured("COc1cc(C(=O)/C=C/c2c(C(F)(F)F)nc3ccccn23)cc(OC)c1OC")
"1.87 µM"
>>> value_measured("NCc1ccc(-c2nc(-c3ccc(Cl)c(O)c3)c(-c3ccncc3)[nH]2)cc1")
"> 19.2 µM"

###

Test system: HCC-2998 colon
Method summary: NCI tumour cell line growth inhibition, 48 h
Below: a set of entries, each annotated with reported TGI.
Recorded metric: TGI (µM)

>>> value_measured("Fc1ccc2nc(-c3nc(-c4ccccc4)n4ccccc34)[nH]c2c1")
16.9
>>> value_measured("COC1=C(OC)C(=O)C(CCCCCCCCCCO)=C(C)C1=O")
33.5
>>> value_measured("COCCOCOC(C)(C)[C@H](CCO)O[Si](c1ccccc1)(c1ccccc1)C(C)(C)C")
18.9

###

System: 786-0 renal
Method summary: NCI tumour cell line growth inhibition, 48 h
Recorded metric: GI50

>>> value_measured("C=CC(=O)N[C@@H](/C=C/C(=O)OCC)Cc1ccc(-c2cc(Cl)cc(Cl)c2)cc1")
"20200 nM"
>>> value_measured("COc1ccc2c(c1)C(=O)c1c-2c(=O)n(CCCN(C)C)c2cc(OC)c(OC)cc12")
"6930 nM"
>>> value_measured("c1ccc(C2CCCCC2)c(OCCCCCN2CCNCC2)c1")
"1700 nM"
>>> value_measured("C=C1C(=O)O[C@H]2[C@H]1CC/C(COC(=O)NCc1c[nH]c3ccc(F)cc13)=C\\CC[C@@]1(C)O[C@@H]21")
"899 nM"
>>> value_measured("Cc1ccc(-n2c(-c3cc4c([nH]c5ccccc54)c(-c4cccc(O)c4)n3)n[nH]c2=S)cc1")
"2600 nM"

###

Tested on: NCI-H522 lung
Method summary: NCI tumour cell line growth inhibition, 48 h; in the data active means GI50 below about 0.43 µM; inactive means the rest
Labels: 1.0 = active, 0.0 = inactive

>>> qualitative_label("Clc1ccc([I+]c2ccc(Cl)cc2Cl)c(Cl)c1")
0.0
>>> qualitative_label("CSC1=Nc2c(c(C)c(-c3ccccc3)n2COC(CO)CO)C2=NC(=O)CN12")
0.0
>>> qualitative_label("CC1CCC2C(CN(CC3=C(C(F)(F)F)OC4OC5(C)CCC6C(C)CCC3C46OO5)CC3=C(C(F)(F)F)OC4OC5(C)CCC6C(C)CCC3C46OO5)=C(C(F)(F)F)OC3OC4(C)CCC1C32OO4 (centres undefined)")
0.0
>>> qualitative_label("C=C1C(=O)O[C@H]2[C@H]1CC/C(COC(=O)NCc1c[nH]c3ccc(F)cc13)=C\\CC[C@@]1(C)O[C@@H]21")
0.0
>>> qualitative_label("Clc1nc(Cl)c2ncn(CCOCCn3cnc4c(Cl)nc(Cl)nc43)c2n1")
0.0
>>> qualitative_label("COc1ccc(-c2[nH]c3ccccc3c2/C=C(\\C#N)S(=O)(=O)c2ccccc2)cc1")
0.0
>>> qualitative_label("COC1=C(OC)[C@]2(OC)c3c(O)c(OC)c4c(c3O[C@@]23O[C@@H](c2ccccc2)CC=C3C1=O)[C@@H](OC)C[C@H](c1ccccc1)O4")
1.0
>>> qualitative_label("c1ccc(C2CCCCC2)c(OCCCCCN2CCNCC2)c1")
0.0
>>> qualitative_label("O=C1/C(=C/c2ccccc2[N+](=O)[O-])COc2ccc(O)cc21")
0.0
>>> qualitative_label("C=CC(=O)N[C@@H](/C=C/C(=O)OCC)Cc1ccc(-c2cc(Cl)cc(Cl)c2)cc1")
0.0
>>> qualitative_label("COc1ccc(COc2cc3oc(=O)c4cc(C(C)O)ccc4c3cc2OC)cc1 (centres undefined)")
0.0
>>> qualitative_label("COC(=O)c1cc([N+](=O)[O-])cc([N+](=O)[O-])c1Cl")
0.0
>>> qualitative_label("CCN(Cc1ccc(F)cc1)c1ccc(CO)c(C(F)(F)F)c1")
0.0
>>> qualitative_label("COc1cc(-c2ncn(/C=C\\c3nnco3)n2)cc(C(F)(F)F)c1")
1.0
>>> qualitative_label("N#C/C(=C\\c1cc2ccc(N3CCC3)cc2oc1=O)C(=O)N(CC(=O)O)CC(=O)O")
0.0
>>> qualitative_label("CC1CCN(CCOc2ccc(CNc3ccc4nc(CCC5CCCCC5)[nH]c4c3)cc2)CC1")
0.0
>>> qualitative_label("CC(C)N(Cc1ccc(F)cc1)c1ccc(CO)c(Cl)c1")
0.0
>>> qualitative_label("Nc1nc(-c2ccc(Cl)cc2)nc2c1sc(=S)n2-c1ccccc1")
0.0
>>> qualitative_label("c1ccc2c(CNCCN3CCNCC3)c3ccccc3c(CNCCN3CCNCC3)c2c1")
0.0
>>> qualitative_label("COc1cc2c(cc1NC(=O)C(Cl)Cl)-c1ccc(NC(=O)C(Cl)Cl)cc1C2")
0.0
>>> qualitative_label("CN(C)CCCn1c2c(c3cc4c(cc3c1=O)OCO4)C(=O)c1ccccc1-2")
0.0
>>> qualitative_label("Cc1ccc(Cl)cc1-n1c(C)nc2c(cnn2-c2ccnc3c(C(F)(F)F)cccc23)c1=O")
0.0
>>> qualitative_label("C[C@H]1CN(C2COC2)CCN1c1ccc(Nc2cc(-c3ccnc(N4CCn5c(cc6c5CC(C)(C)C6)C4=O)c3CO)cn(C)c2=O)nc1")
0.0
>>> qualitative_label("COc1cc(C(=O)/C=C/c2c(C(F)(F)F)nc3ccccn23)cc(OC)c1OC")
0.0
